Every entry's value here was drawn from patent US11365215B2.

Experiment: Tissue distribution after oral administration
Assay type: in vivo
Details: retrimentum in small intestine; rat, oral 10 mg/kg, 8 hours; read-out: Concentration in retrimentum in small intestine
Peptide text beside a SMILES is read from it.
parameter: concentration at 8 h (ng/mL)
Give bare numbers, in ng/mL.

Data request: Entry CCCCCCCCCCCCCCCC(=O)N1CCC[C@H]1C(=O)N1CCC[C@H]1C(=O)NCC(=O)N[C@@H](Cc1ccc(O)cc1)C(=O)O [compound 1.1] (HELM PEPTIDE1{[CCCCCCCCCCCCCCCC(=O)[*:2]].P.P.G.Y}$$$$V2.0) : reported concentration at 8 h = ?
Data returned: 876

----------
Test: Tissue distribution after oral administration
Assay type: in vivo
Conditions: retrimentum in large intestine; rat, oral 10 mg/kg, 8 hours; read-out: Concentration in retrimentum in large intestine
Peptide text beside a SMILES is read from it.
parameter: concentration at 8 h
Answer as a quantity: numeral, then unit.

Data request: Entry CCCCCCCCCCCCCCCC(=O)N1CCC[C@H]1C(=O)N1CCC[C@H]1C(=O)NCC(=O)N[C@@H](Cc1ccc(O)cc1)C(=O)O [compound 1.1] (HELM PEPTIDE1{[CCCCCCCCCCCCCCCC(=O)[*:2]].P.P.G.Y}$$$$V2.0) : reported concentration at 8 h = ?
Data returned: 1280 ng/mL

----------
Assay: Tissue distribution after oral administration
Type: in vivo
Details: appendix tissue; rat, oral 10 mg/kg, 8 hours; read-out: Concentration in appendix tissue
Peptide text beside a SMILES is read from it.
parameter: concentration at 8 h (ng/mL)
Numbers only, in ng/mL.

Data request: Entry CCCCCCCCCCCCCCCC(=O)N1CCC[C@H]1C(=O)N1CCC[C@H]1C(=O)NCC(=O)N[C@@H](Cc1ccc(O)cc1)C(=O)O [compound 1.1] (HELM PEPTIDE1{[CCCCCCCCCCCCCCCC(=O)[*:2]].P.P.G.Y}$$$$V2.0) : reported concentration at 8 h = ?
Data returned: 48.2

----------
Assay: Tissue distribution after oral administration
Type: in vivo
Settings: large intestinal tissue; rat, oral 10 mg/kg, 8 hours; read-out: Concentration in large intestinal tissue
Peptide text beside a SMILES is read from it.
parameter: concentration at 8 h (ng/mL)
Answers are plain numbers, in ng/mL.

Data request: Entry CCCCCCCCCCCCCCCC(=O)N1CCC[C@H]1C(=O)N1CCC[C@H]1C(=O)NCC(=O)N[C@@H](Cc1ccc(O)cc1)C(=O)O [compound 1.1] (HELM PEPTIDE1{[CCCCCCCCCCCCCCCC(=O)[*:2]].P.P.G.Y}$$$$V2.0) : reported concentration at 8 h = ?
Data returned: 33.2

----------
Assay: Plasma concentration / pharmacokinetics after intravenous and oral administration
Format: in vivo, Male SD rat
Conditions: plasma, iv; Male SD rat, single dose 5 mg/kg (i.v.); read-out: Vss
Peptide text beside a SMILES is read from it.
parameter: Vd (L/kg)
One number for each entry, in L/kg.

Data request: Entry CCCCCCCCCCCCCCCC(=O)N1CCC[C@H]1C(=O)N1CCC[C@H]1C(=O)NCC(=O)N[C@@H](Cc1ccc(O)cc1)C(=O)O [compound 1.1] (HELM PEPTIDE1{[CCCCCCCCCCCCCCCC(=O)[*:2]].P.P.G.Y}$$$$V2.0) : reported Vd = ?
Data returned: 5.4

----------
Assay: Plasma concentration / pharmacokinetics after intravenous and oral administration
Type: in vivo, Male SD rat
Conditions: plasma, po; Male SD rat, single dose 50 mg/kg (p.o.)
Peptide text beside a SMILES is read from it.
parameter: Tmax

Data request: Entry CCCCCCCCCCCCCCCC(=O)N1CCC[C@H]1C(=O)N1CCC[C@H]1C(=O)NCC(=O)N[C@@H](Cc1ccc(O)cc1)C(=O)O [compound 1.1] (HELM PEPTIDE1{[CCCCCCCCCCCCCCCC(=O)[*:2]].P.P.G.Y}$$$$V2.0) : reported Tmax = ?
Data returned: 0 h

----------
Assay: Tissue distribution after oral administration
Format: in vivo
Settings: appendix tissue; rat, oral 10 mg/kg, 2 hours; read-out: Concentration in appendix tissue
Peptide text beside a SMILES is read from it.
parameter: concentration at 2 h (ng/mL)
Answers are plain numbers, in ng/mL.

Data request: Entry CCCCCCCCCCCCCCCC(=O)N1CCC[C@H]1C(=O)N1CCC[C@H]1C(=O)NCC(=O)N[C@@H](Cc1ccc(O)cc1)C(=O)O [compound 1.1] (HELM PEPTIDE1{[CCCCCCCCCCCCCCCC(=O)[*:2]].P.P.G.Y}$$$$V2.0) : reported concentration at 2 h = ?
Data returned: 22.7
